Each recorded value in this set is attributed to paper PMC10290134.

Target: T1, Periostin (UniProt Q15063 496-836)
T1 sequence: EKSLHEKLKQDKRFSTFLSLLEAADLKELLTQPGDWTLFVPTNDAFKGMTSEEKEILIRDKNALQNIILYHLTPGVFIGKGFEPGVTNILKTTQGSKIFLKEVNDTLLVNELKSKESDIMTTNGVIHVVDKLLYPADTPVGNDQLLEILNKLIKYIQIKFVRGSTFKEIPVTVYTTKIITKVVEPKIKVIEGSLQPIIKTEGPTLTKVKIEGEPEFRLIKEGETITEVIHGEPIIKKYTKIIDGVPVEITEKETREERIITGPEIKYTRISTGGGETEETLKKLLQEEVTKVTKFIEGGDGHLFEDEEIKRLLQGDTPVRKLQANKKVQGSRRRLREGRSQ
Experiment: magnetic bead fluorescence assay; 5 mM Mg2+; 20 mM Tris-HCl pH 8.0, 100 mM NaCl, 5 mM KCl, 5 mM MgCl2, 0.05% Tween 20, 25 °C, 1 h; His-tagged periostin on His-tag magnetic beads
Conditions: protein: recombinant; tags: 6xHis (pET-28a); label: 5' Cy3
READOUT_LABEL: Kd (nM)
Give bare numbers, in nM.

binder="PL5trunc (ssDNA) DNA: TAATACGACTCACTATAGCGGATCCGATTCGAACCAGAATATTAGTCGCAAAATCTTGATG" readout_label=Kd val=37

Batch request: Kd per item, same order as input.
1. PL2 (ssDNA) DNA: CACCTAATACGACTCACTATAGCGGATCCGAAAGTCAACGCCAGATAAAAACAATTTGCCTTCCTCCGCCCCTGGCTCGAACAAGCTTGC
2. TCAACGCCAGATAAAAACAATTTGCCTTCCTCCGCCCCTGGCTCGAA (ssDNA) [PL2trunc]
3. PL5 (ssDNA) DNA: CACCTAATACGACTCACTATAGCGGATCCGATTCGAACCAGAATATTAGTCGCAAAATCTTGATGCAGTCACTGGCTCGAACAAGCTTGC

Completion:
1: 45.7; 2: 10.1; 3: 50.1
